subject-of-test: T1, TIGIT on the TIGIT-overexpressing Jurkat cell line (Jurkat-TIGIT) (Homo sapiens (Human), UniProt Q495A1 22-244)
T1 construct: Jurkat E6.1 cells transfected with 'TIGIT cDNA'; also called TIGIT expressed on the cell surface
T1 sequence: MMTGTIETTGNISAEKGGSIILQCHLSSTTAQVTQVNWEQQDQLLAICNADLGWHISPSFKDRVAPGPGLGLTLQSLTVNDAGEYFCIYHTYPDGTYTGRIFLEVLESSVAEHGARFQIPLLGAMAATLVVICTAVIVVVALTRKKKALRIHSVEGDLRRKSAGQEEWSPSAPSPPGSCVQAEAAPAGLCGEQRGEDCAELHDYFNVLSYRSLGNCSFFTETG
assay-procedure: flow cytometry on Jurkat-TIGIT cells, antibody 25 to 0.00032 ug/ml, PE goat anti-human Fab'2, MFI
attribute-measured: EC50 (µg/mL)
# unit: µg/mL | format: bare number

WIN_1B6 (IgG-type anti-TIGIT antibody) (antibody, V domains shown, section 4.2 is headed 'Conversion to IgG4-Type Anti-TIGIT Antibodies') VH: QVQLVQSGAEVKKPGASVKVSCKASGYTFTSYGISWVRQAPGQGLEWMGWISAYNGNTNYAQKLQGRVTMTTDTSTSTAYMELRSLRSDDTAVYYCARAGWEQQLGFDYWGQGTLVTVSS VL: AIQLTQSPSSLSASVGDRVTISCRASQTIRSYLNWYQQKPGKAPKLLIYAASSLQSGVPLRFSGSGSGTDFTLTISSLQPEDFATYYCQQSYSTLPLTFGGGTKVEIKR	0.016
WIN_1D2 (IgG-type anti-TIGIT antibody) (antibody, V domains shown, section 4.2 is headed 'Conversion to IgG4-Type Anti-TIGIT Antibodies') VH: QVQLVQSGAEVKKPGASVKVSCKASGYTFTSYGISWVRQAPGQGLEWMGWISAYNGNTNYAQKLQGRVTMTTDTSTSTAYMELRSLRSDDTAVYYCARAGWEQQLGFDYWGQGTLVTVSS VL: AIQLTQSPSSLSASVGDRVTITCRASQSISSYLNWYQQKPGKAPKLLIYAASSLQSGVPSRFSGSGSGTDFTLTISSLQPEDFATYYCQQSYSTLAITFGQGTRLEIKR	0.017

EC50 measured on 1E8 (IgG-type anti-TIGIT antibody) (antibody, V domains shown, section 4.2 is headed 'Conversion to IgG4-Type Anti-TIGIT Antibodies') VH: QVQLVQSGTEVKKPGASVKVSCKASGYTFSSYAITWVRQAPGQGLEWMGWISAYNGNTNYAQKLQGRVTMTTDTSTSTAYMELRSLRSDDTAVYYCARVDFWSGYNYFDYWGQGTLVTVSS VL: DIQMTQSPSSLSASVGDRVTITCRASQGISNYLAWYQQKPGKVPKVLIYAASTLQSGVPSRFSGSGSGTDFTLTISSLQPEDVATYYCQKSNSAPLTFGGGTKVEIKR = 0.021
